# SYSTEM_UNDER_TEST: SARS-CoV-2 Nsp9, wild type, purified recombinant (SARS-CoV-2, UniProt P0DTD1)
QUANTITY_NAME: binding result

1. 2INS27 (VHH) VHH: QVQLQESGGGLVQAGGSLRLSCATSGSIFSSAVMGWYRQAPGNERELVALIGSSDTTDYSNSVKGRFTISRDNAKNTAYLRMNSLKPEDTAVYYCTAVKYGLGGFVYWGQGTQVTVSS: binds
2. 2INS69 (VHH) VHH: QVQLQESGGGLVRAGDSLRLSCAVSGRTFSSVAMGWFRQAPGKEREFVAFISGSTGSVTYYADSVKGRFAISRDNAKNTVYLQMNSLKPEDTAVYDCAAKFTGTFNYQGLYDYWGQGTQVTVSS: binds
